The origin of these recorded values is PubChem BioAssay (Tox21).

Test: qHTS assay to identify small molecule HDAC inhibitors (AID 1259364);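 note: wild-type HCT-116 cells with endogenous class I/II HDAC activity; nearly all actives have a fitted effect of over 45% in size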
Conditions: HCT-116 HDAC-Glo I/II luminescence, 2 h; series mostly up to 92.4 µM
Records with an inconclusive call do not appear. Active and inactive are the calls of the source. Calls come from the whole dose curve; as a rule, active = well fitted inhibition curve with a large enough effect in the repeat runs; inconclusive = weak or mixed curves; inactive = flat fitted curve, though single readings scatter.
Classes used: yes (1) = active, no (0) = inactive

INSERT INTO assay_data (compound, discrete_label) VALUES
  ('C(=C\c1ccccc1)/c1ccccc1', 'yes (1)'),
  ('C=CC(C)(CCC=C(C)C)OC(=O)CC(C)C (configuration not stated)', 'no (0)'),
  ('Cc1cccc(O)c1N', 'no (0)'),
  ('O=[N+]([O-])c1ccc(Nc2ccc(Nc3ccccc3)c(S(=O)(=O)O)c2)c([N+](=O)[O-])c1', 'no (0)'),
  ('CCCCCCC(C)(C)C(=O)O', 'no (0)'),
  ('CC(C)(C)C(=O)C(=O)O', 'no (0)'),
  ('O=C(/C=C/c1ccccc1)OCCc1ccccc1', 'yes (1)'),
  ('O=C1c2ccccc2C(=O)C1c1ccc(Br)cc1', 'yes (1)'),
  ('CC(C)=CCC1C(=O)N(c2ccccc2)N(c2ccccc2)C1=O', 'no (0)'),
  ('C/C=C\C/C=C/CCCCCCCCOC(C)=O', 'no (0)'),
  ('CC(C)c1nc(CN(C)C(=O)N[C@H](C(=O)N[C@@H](Cc2ccccc2)C[C@H](O)[C@H](Cc2ccccc2)NC(=O)OCc2cncs2)C(C)C)cs1', 'no (0)'),
  ('O=C1CCCCCCCCCCOCCCCO1', 'no (0)');
